assay: Inhibition of Beta-lactamase GES-2 E104, N170 mutant preincubated for 5 mins before substrate addition using cephalothin substrate by spectrophotometry
Provide the reported IC50 of each item.
Note: unit nM is implicit; provide only the numeric part.

-- ask What value of measured IC50 is listed for CC1(C)[C@H](C(=O)O)N2C(=O)C[C@H]2S1(=O)=O ?
-- reply 500

-- ask What value of measured IC50 is listed for C[C@]1(Cn2ccnn2)[C@H](C(=O)O)N2C(=O)C[C@H]2S1(=O)=O ?
-- reply 30

-- ask What value of measured IC50 is listed for O=C(O)[C@H]1/C(=C/CO)O[C@@H]2CC(=O)N21 ?
-- reply 80

Data origin, for the record: ChEMBL document CHEMBL1687781
